Ref: patent US20160015064A1

System: perception of the sweet taste of an aqueous solution of sweetener
TEST: Ranking sip and spit test of sweetness perception (R index)
Assay type: in vivo, humans
EXPERIMENTAL_CONTEXT: 5% sucrose test sample; compound 10 ppm; vs negative control; significant at R index ≧60

| COMPOUND | R Index Score |
| --- | --- |
| COc1ccc(C2CC(=O)c3c(O)cccc3O2)cc1O (racemic) [Compound 1] | 93 |
| O=C1CC(c2ccc(O)cc2)Oc2cccc(O)c21 (stereo not shown) | 71 |
| O=C1CC(c2cccc(O)c2)Oc2cc(O)cc(O)c21 (stereo not shown) | 65 |
| O=C1CC(c2ccc(O)c(O)c2)Oc2cccc(O)c21 (stereo not shown) | 69 |
| COC(=O)c1cccc(C2CC(=O)c3c(O)cc(O)cc3O2)c1 (stereo not shown) | 61 |
| COc1ccc(C2CC(=O)c3c(O)cc(C)cc3O2)cc1O (stereo not shown) | 82 |
| COc1ccc(C2CC(=O)c3c(O)cccc3O2)cc1O (single isomer, unassigned) [Compound 2] | 90 |
